Sourced from ChEMBL document CHEMBL1127332

Readings of logP for the listed molecules
METHOD: Partition coefficient (logP)
Format: physicochemical
MEASUREMENT PARAMETERS: octanol/water
Form field (numeric): enter value without unit.

See these solved cases before continuing.
molecule=Cc1nc(C(C)C)c2c(n1)N(Cc1ccc(-c3ccccc3-c3nn[nH]n3)cc1)C(=O)CC2 reported=4.32
molecule=CCCc1nc(C)nc2c1CCC(=O)N2Cc1ccc(-c2ccccc2-c2nn[nH]n2)cc1 reported=4.45
molecule=Cc1nc(C)c2c(n1)N(Cc1ccc(-c3ccccc3-c3nnn[nH]3)cc1)C(=O)CC2 reported=3.39
molecule="Cc1nc(C)c2c(n1)N(Cc1ccc(-c3ccccc3-c3nn[nH]n3)cc1)C(=O)C(C)C2 (stereo unspecified)" reported=3.91

Prompt: I have this molecule here, "CCc1nc(C)nc2c1CCC(=O)N2Cc1ccc(-c2ccccc2-c2nn[nH]n2)cc1" , and I need its recorded logP.
Completion: 3.92

Prompt: Then this molecule: "Cc1nc(C)c2c(n1)N(Cc1ccc(-c3ccccc3-c3nn[nH]n3)cc1)C(=O)C(C)(C)C2"
Completion: 4.43
